target: Phosphodiesterase 1 (Homo sapiens, UniProt P54750+Q01064+Q14123); assay: In vitro inhibition of human Phosphodiesterase 1 partially purified from THP-1 cells
Each record is given t if its reported IC50 is strictly below 3 µM. Records at or above 3 µM are given f.

INSERT INTO assay_data (smiles_representation, label_class) VALUES
  ('CN1CCN(C(=O)c2ccc(-c3cc(Cl)c4c(c3)C3(CCCCC3)NC(=O)N4)cc2)CC1', 'f'),
  ('O=C1Nc2c(Cl)cc(-c3cccc(C(=O)O)c3)cc2C2(CCCCC2)N1', 't'),
  ('O=C1Nc2c(Cl)cc(-c3ccc(C(=O)O)cc3)cc2C2(CCCCC2)N1', 't'),
  ('CN1CCN(C(=O)c2cccc(-c3cc(Cl)c4c(c3)C3(CCCCC3)NC(=O)N4)c2)CC1', 'f'),
  ('O=C1Nc2c(Cl)cc(-c3cccnc3)cc2C2(CCCCC2)N1', 't'),
  ('O=C1Nc2c(Cl)cc(-c3ccccn3)cc2C2(CCCCC2)N1', 'f'),
  ('CN(C)CCNC(=O)c1cccc(-c2cc(Cl)c3c(c2)C2(CCCCC2)NC(=O)N3)c1', 'f'),
  ('CN(C)CCCNC(=O)c1ccc(-c2cc(Cl)c3c(c2)C2(CCCCC2)NC(=O)N3)cc1', 'f'),
  ('CN(C)CCCNC(=O)c1cccc(-c2cc(Cl)c3c(c2)C2(CCCCC2)NC(=O)N3)c1', 'f'),
  ('CN1CCN(C(=O)c2ccccc2-c2cc(Cl)c3c(c2)C2(CCCCC2)NC(=O)N3)CC1', 'f'),
  ('CN(C)CCNC(=O)c1ccc(-c2cc(Cl)c3c(c2)C2(CCCCC2)NC(=O)N3)cc1', 'f'),
  ('NC(=O)c1ccc(-c2cc(Cl)c3c(c2)C2(CCCCC2)NC(=O)N3)cc1', 't');
